meta.source: PubChem BioAssay (NCI)

System: NCI-H23 lung
Assay: NCI tumour cell line growth inhibition, 48 h; in the data active = GI50 below about 0.43 µM; inactive = the rest
Possible outcomes: active, inactive

INSERT INTO assay_data (structurestring, classlabel) VALUES
  ('COc1ccc(OC)c(/C=C/C(=O)N/N=C/c2ccc(Cl)cc2)c1', 'active'),
  ('Cc1ccc(C(=NN=C(N)N)c2ccc(C)cc2)cc1', 'inactive'),
  ('CN(C)CCCn1c2c(c3ccccc3c1=O)C(=O)c1ccccc1-2', 'inactive');

---

Tested on: MDA-MB-435
Experiment: NCI tumour cell line growth inhibition, 48 h
measurementType: TGI

INSERT INTO assay_data (molecule, measurementtype, experimentalvalue) VALUES
  ('CCCCCCCCCCCCCCCCP(=O)(O)OCC(N)C(=O)O (stereo not drawn)', 'TGI', '> 100 µM'),
  ('COc1ccc(NC(=S)Nc2cc(C)ccn2)cc1', 'TGI', '> 100 µM'),
  ('COc1ccc(N2C(=O)C3c4[nH]c5ccc(C)cc5c4C4CCC(C(C)(C)C)CC4C3C2=O)cc1 (stereo not drawn)', 'TGI', '> 100 µM');
